Tested on: CEM-SS cells
Assay type: binding, human
run.parameters: read-out: Ki, inhibition of [3H]PDBu binding to CEM cells; 10% fetal calf serum; one experiment

{"columns": ["chem.smiles", "Ki / nM"],
 "data": [
  ["CC(=O)O[C@@]12C[C@@H](C)[C@@]3(O)[C@@H](C=C(CO)C[C@]4(O)C(=O)C(C)=C[C@@H]34)[C@@H]1C2(C)C", 190]
]}

* * *

assay.system: protein kinase C
test.summary: [3H]PDBu binding to partially purified protein kinase C
run.parameters: read-out: Ki, competition of [3H]PDBu binding to protein kinase C; for comparison; mean±range, 2 experiments
Experimental: Incubation was for 30 min at 37° C., after which the cells were chilled, an aliquot removed to determine total counts, and bound counts determined by filtration.

{"columns": ["molecule", "Ki [nM]"],
 "data": [
  ["CC1=C[C@H]2[C@@]3(O)[C@H](C)C[C@]4(OC(=O)C(C)C)[C@H]([C@@H]3C=C(CO)C[C@]2(O)C1=O)C4(C)C [12-deoxyphorbol 13-isobutyrate]", 2.1]
]}
